EC50 for assorted molecules
# System: HCV replicon 1A
# test: Cell-based HCV replicon assay (Replicon Assay A), replicon 1A
# Parameters: species or system Hepatitis C virus (HCV)
# conditions.used: replicon RNA by real time PCR, cells harvested on day 3
I only need the number, in nM, no unit after it.

>  <molecule>
COC(=O)N[C@H](C(=O)N1CCC[C@H]1c1ncc(-c2cc(F)c3c(c2)OC(c2nc(C(C)C)ns2)n2c-3cc3cc(-c4cnc([C@@H]5CCCN5C(=O)[C@@H](NC(=O)OC)C(C)C)[nH]4)ccc32)[nH]1)C(C)C (single isomer, unassigned) [Compound 32]

>  <unit>
nM

>  <EC50>
0.0022

$$$$

*Q* Identify EC50 associated with the molecule COC(=O)N[C@H](C(=O)N1CCC[C@@H]1c1ncc(-c2ccc3c(c2)cc2n3C(c3cnco3)Oc3cc(-c4cnc([C@H]5CCCN5C(=O)[C@H](NC(=O)OC)C(C)C)[nH]4)cc(F)c3-2)[nH]1)C(C)C (single isomer, unassigned) [Compound 18]
*A* 0.0023

*Q* Return reported EC50. Input molecule: COC(=O)N[C@H](C(=O)N1CCC[C@H]1c1ncc(-c2cc(F)c3c(c2)OC(c2coc(C4CC4)n2)n2c-3cc3cc(-c4cnc([C@@H]5CCCN5C(=O)[C@@H](NC(=O)OC)C(C)C)[nH]4)ccc32)[nH]1)C(C)C (single isomer, unassigned) [Compound 36]
*A* 0.0023

*Q* State its EC50: CCc1nnc(C2Oc3cc(-c4cnc([C@@H]5CCCN5C(=O)[C@@H](NC(=O)OC)C(C)C)[nH]4)cc(F)c3-c3cc4cc(-c5cnc([C@@H]6CCCN6C(=O)C(NC(=O)OC)C(C)C)[nH]5)ccc4n32)s1 (single isomer, unassigned) [Compound 33]
*A* 0.0028

----------
# Tested on: HCV replicon 1A Y93H
# test: Cell-based HCV replicon assay (Replicon Assay A), replicon 1AY93H
# Parameters: species or system Hepatitis C virus (HCV)
# conditions.used: read-out: Replicon EC50 (nM) 1A Y93H, replicon 1A Y93H, replicon RNA by real time PCR, cells harvested on day 3
reported.property: EC50 (nM)
# number only, unit nM dropped from output

>  <compound>
COC(=O)N[C@H](C(=O)N1CCC[C@H]1c1ncc(-c2cc(F)c3c(c2)O[C@@H](c2cc(C(C)C)no2)n2c-3cc3cc(-c4cnc([C@@H]5CCCN5C(=O)[C@@H](NC(=O)OC)C(C)C)[nH]4)ccc32)[nH]1)C(C)C (single isomer, unassigned) [Compound 9]

>  <measurement.target>
HCV replicon 1A Y93H

>  <EC50 (nM)>
0.05

$$$$
>  <compound>
COC(=O)N[C@H](C(=O)N1CCC[C@H]1c1ncc(-c2cc(F)c3c(c2)OC(c2cc(C(C)C)no2)n2c-3cc3cc(-c4cnc([C@@H]5CCCN5C(=O)[C@@H](NC(=O)OC)C(C)C)[nH]4)ccc32)[nH]1)C(C)C (single isomer, unassigned) [Compound 26]

>  <measurement.target>
HCV replicon 1A Y93H

>  <EC50 (nM)>
0.816

$$$$
>  <compound>
COC(=O)N[C@H](C(=O)N1CCC[C@H]1c1ncc(-c2cc(F)c3c(c2)OC(c2cc(C(C)C)no2)n2c-3cc3cc(-c4cnc([C@@H]5CCCN5C(=O)[C@@H](NC(=O)OC)C(C)C)[nH]4)ccc32)[nH]1)C(C)C (single isomer, unassigned) [Compound 25]

>  <measurement.target>
HCV replicon 1A Y93H

>  <EC50 (nM)>
0.026

$$$$
>  <compound>
CCc1cc([C@@H]2Oc3cc(-c4cnc([C@@H]5CCCN5C(=O)[C@@H](NC(=O)OC)C(C)C)[nH]4)cc(F)c3-c3cc4cc(-c5cnc([C@@H]6CCCN6C(=O)[C@@H](NC(=O)OC)C(C)C)[nH]5)ccc4n32)on1 (single isomer, unassigned) [Compound 7]

>  <measurement.target>
HCV replicon 1A Y93H

>  <EC50 (nM)>
49.7

$$$$
>  <compound>
COC(=O)N[C@H](C(=O)N1CCC[C@H]1c1ncc(-c2cc(F)c3c(c2)OC(c2nc(C(C)C)ns2)n2c-3cc3cc(-c4cnc([C@@H]5CCCN5C(=O)[C@@H](NC(=O)OC)C(C)C)[nH]4)ccc32)[nH]1)C(C)C (single isomer, unassigned) [Compound 31]

>  <measurement.target>
HCV replicon 1A Y93H

>  <EC50 (nM)>
5.65

$$$$

*Q* Under HCV replicon 1A Y93H, report EC50 for COC(=O)N[C@H](C(=O)N1CCC[C@H]1c1ncc(-c2cc(F)c3c(c2)OC(c2cnns2)n2c-3cc3cc(-c4cnc([C@@H]5CCCN5C(=O)[C@@H](NC(=O)OC)C(C)C)[nH]4)ccc32)[nH]1)C(C)C (single isomer, unassigned) [Compound 22]
*A* 0.048

*Q* Fill in EC50 for COC(=O)N[C@H](C(=O)N1CCC[C@H]1c1ncc(-c2cc(F)c3c(c2)OC(c2nc4ccccc4o2)n2c-3cc3cc(-c4cnc([C@@H]5CCCN5C(=O)[C@@H](NC(=O)OC)C(C)C)[nH]4)ccc32)[nH]1)C(C)C (single isomer, unassigned) [Compound 19] tested with HCV replicon 1A Y93H.
*A* 4.36

*Q* Please indicate recorded EC50 of COC(=O)N[C@H](C(=O)N1CCC[C@H]1c1ncc(-c2cc(F)c3c(c2)OC(c2cnns2)n2c-3cc3cc(-c4cnc([C@@H]5CCCN5C(=O)[C@@H](NC(=O)OC)C(C)C)[nH]4)ccc32)[nH]1)C(C)C (single isomer, unassigned) [Compound 21] measured with HCV replicon 1A Y93H.
*A* 1.39

*Q* Fill in: EC50 on HCV replicon 1A Y93H, entry COC(=O)N[C@H](C(=O)N1CCC[C@H]1c1ncc(-c2cc(F)c3c(c2)OC(c2cc4ccccn4n2)n2c-3cc3cc(-c4cnc([C@@H]5CCCN5C(=O)[C@@H](NC(=O)OC)C(C)C)[nH]4)ccc32)[nH]1)C(C)C (single isomer, unassigned) [Compound 39]
*A* 1.66

*Q* Retrieve EC50 on HCV replicon 1A Y93H; query COC(=O)N[C@H](C(=O)N1CCC[C@H]1c1ncc(-c2cc(F)c3c(c2)OC(c2nc(C)co2)n2c-3cc3cc(-c4cnc([C@@H]5CCCN5C(=O)[C@@H](NC(=O)OC)C(C)C)[nH]4)ccc32)[nH]1)C(C)C (single isomer, unassigned) [Compound 23]
*A* 12.7

*Q* Find the measured EC50 of COC(=O)N[C@H](C(=O)N1CCC[C@H]1c1ncc(-c2cc(F)c3c(c2)OC(c2nc4ccccc4o2)n2c-3cc3cc(-c4cnc([C@@H]5CCCN5C(=O)[C@@H](NC(=O)OC)C(C)C)[nH]4)ccc32)[nH]1)C(C)C (single isomer, unassigned) [Compound 20] with HCV replicon 1A Y93H as test system.
*A* 0.075

*Q* Under HCV replicon 1A Y93H: report EC50 of COC(=O)N[C@H](C(=O)N1CCC[C@H]1c1ncc(-c2cc(F)c3c(c2)OC(c2cc(C4CC4)no2)n2c-3cc3cc(-c4cnc([C@@H]5CCCN5C(=O)[C@@H](NC(=O)OC)C(C)C)[nH]4)ccc32)[nH]1)C(C)C (single isomer, unassigned) [Compound 29] .
*A* 3.25

*Q* Specify the recorded EC50 for COC(=O)N[C@H](C(=O)N1CCC[C@@H]1c1ncc(-c2ccc3c(c2)cc2n3C(c3cnco3)Oc3cc(-c4cnc([C@H]5CCCN5C(=O)[C@H](NC(=O)OC)C(C)C)[nH]4)cc(F)c3-2)[nH]1)C(C)C (single isomer, unassigned) [Compound 17] , system: HCV replicon 1A Y93H.
*A* 0.716

*Q* Report its EC50 with HCV replicon 1A Y93H as the test system: COC(=O)N[C@H](C(=O)N1CCC[C@H]1c1ncc(-c2cc(F)c3c(c2)OC(c2cc(C4CC4)no2)n2c-3cc3cc(-c4cnc([C@@H]5CCCN5C(=O)[C@@H](NC(=O)OC)C(C)C)[nH]4)ccc32)[nH]1)C(C)C (single isomer, unassigned) [Compound 30]
*A* 0.026
